Test system: johnsongrass (Sorghum halepense)
PROTOCOL_DESCRIPTION: Test B pre-/postemergence plant response
Type: in vivo
SETTINGS: Preemergence, 62 g ai/ha; scale 0 to 100, 0 no effect, 100 complete control
The reader will find reported Plant response rating, Johnsongrass values listed item by item below.
Response field accepts a number only; no unit should be typed.

Examples with answers:
[[record]]
item_smiles = "CCc1cccc(-n2c(-c3ccccc3)ncc(C(=O)C3=C(O)CCCC3=O)c2=O)c1"
test_system = "johnsongrass (Sorghum halepense)"
test_value = 0

[[record]]
item_smiles = "O=C1CCCC(O)=C1C(=O)c1cnc(-c2cccc(Br)c2)n(-c2ccccc2)c1=O"
test_system = "johnsongrass (Sorghum halepense)"
test_value = 45

[[record]]
item_smiles = "Cc1ccc(C)c(-n2c(-c3ccccc3)ncc(C(=O)C3=C(O)CCCC3=O)c2=O)c1"
test_system = "johnsongrass (Sorghum halepense)"
test_value = 5


**Q:** Form field: Plant response rating, Johnsongrass recorded for CCCc1ncc(C(=O)C2=C(O)CCCC2=O)c(=O)n1-c1ccccc1 with johnsongrass (Sorghum halepense) (enter value)
**A:** 5

**Q:** Same question for CCCc1ncc(C(=O)C2=C(O)CCCC2=O)c(=O)n1CCC please.
**A:** 0

**Q:** Also, Cc1ccc(F)c(-n2c(-c3ccccc3)ncc(C(=O)C3=C(O)CCCC3=O)c2=O)c1 please.
**A:** 5

**Q:** Then this molecule: CCCCc1ncc(C(=O)C2=C(O)CCCC2=O)c(=O)n1-c1ccccc1C
**A:** 0

**Q:** Consider next the molecule O=C1CCCC([O-])=C1C(=O)c1cnc(-c2ccccc2)n(-c2ccccc2)c1=O.[K+] in the same way.
**A:** 30

---

Tested on: woolly cupgrass (Eriochloa villosa)
PROTOCOL_DESCRIPTION: Test B pre-/postemergence plant response
Type: in vivo
SETTINGS: Preemergence, 62 g ai/ha; scale 0 to 100, 0 no effect, 100 complete control
// boundary case: Plant response rating, Cupgrass, Woolly equal to 40 maps to condition not met; strictly smaller maps to condition met

[[record]]
item_smiles = "CCCn1c(-c2ccccc2)ncc(C(=O)C2=C(O)CCCC2=O)c1=O"
label_value = "condition met"


**Q:** Just wondering, is Plant response rating, Cupgrass, Woolly of O=C1CCCC(O)=C1C(=O)c1cnc(-c2ccccc2)n(-c2ccc(F)cc2)c1=O below 40?
**A:** condition not met

**Q:** Item: O=C1CCCC(O)=C1C(=O)c1cnc(-c2cccc(Cl)c2)n(-c2ccccc2)c1=O
**A:** condition not met

**Q:** Can you check Cc1ccc(F)c(-n2c(-c3ccccc3)ncc(C(=O)C3=C(O)CCCC3=O)c2=O)c1 next?
**A:** condition met

**Q:** Could you do the same for O=C1CCCC([O-])=C1C(=O)c1cnc(-c2ccccc2)n(-c2ccccc2)c1=O.[K+] , please?
**A:** condition met

---

System: downy bromegrass (Bromus tectorum)
PROTOCOL_DESCRIPTION: Test B pre-/postemergence plant response
Type: in vivo
SETTINGS: Postemergence, 250 g ai/ha; scale 0 to 100 (0 no effect, 100 complete control); 13 to 15 days
PROPERTY_LABEL: Plant response rating, Bromegrass, Downy

[[record]]
item_smiles = "O=C1CCCC(O)=C1C(=O)c1cnc(-c2ccsc2)n(C2CCOCC2)c1=O"
test_value = 50

[[record]]
item_smiles = "O=C1CCCC(O)=C1C(=O)c1cnc(-c2ccccc2)n(C2CCCCCC2)c1=O"
test_value = 40

[[record]]
item_smiles = "Cc1ccc(-n2c(-c3cc(F)cc(F)c3)ncc(C(=O)C3=C(O)CCCC3=O)c2=O)cc1"
test_value = 50

[[record]]
item_smiles = "O=C1CCCC(O)=C1C(=O)c1cnc(-c2ccccc2)n(C2CCOCC2)c1=O"
test_value = 35


**Q:** Entry under review: CCc1cccc(-n2c(-c3ccccc3)ncc(C(=O)C3=C(O)CCCC3=O)c2=O)c1 . Reported Plant response rating, Bromegrass, Downy?
**A:** 30
